Reported viability, T/C values for the following molecules.
Tested on: 967376-340-R-J2-PDC multicell spheroid viability;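 note: luminescence used as surrogate of cell viability; spheroids exposed to agents for 7 days before read-out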
Experiment: Anticancer human tumor 967376-340-R-J2-PDC patient-derived colon adenocarcinoma cell line growth inhibition [PI3K]
Conditions: second compound 0.316 µM; first compound 3.16 µM; stronger effect = lower value
Give the number; % is assumed, so skip it.

Completed entries (count: 5):
[[record]]
molecule = "CCCS(=O)(=O)Nc1ccc(F)c(C(=O)c2c[nH]c3ncc(-c4ccc(Cl)cc4)cc23)c1F + CC(Nc1ncnc2nc[nH]c12)c1cc2cccc(Cl)c2c(=O)n1-c1ccccc1"
target_under_test = "967376-340-R-J2-PDC multicell spheroid viability"
reported = 109

[[record]]
molecule = "CC1(C)CCC(CN2CCN(c3ccc(C(=O)NS(=O)(=O)c4ccc(NCC5CCOCC5)c([N+](=O)[O-])c4)c(Oc4cnc5[nH]ccc5c4)c3)CC2)=C(c2ccc(Cl)cc2)C1 + COc1c(OCCCN2CCOCC2)ccc2c3n(c(=NC(=O)c4cnc(N)nc4)nc12)CCN3"
target_under_test = "967376-340-R-J2-PDC multicell spheroid viability"
reported = 37.4

[[record]]
molecule = "CC1(C)CCC(Nc2ncc(C(F)(F)F)c(-c3c[nH]c4c(P(C)(C)=O)c(C#N)ccc34)n2)CN1 (stereo not given) + COc1c(OCCCN2CCOCC2)ccc2c3n(c(=NC(=O)c4cnc(N)nc4)nc12)CCN3"
target_under_test = "967376-340-R-J2-PDC multicell spheroid viability"
reported = 36.6

[[record]]
molecule = "C#Cc1c(F)ccc2cc(O)cc(-c3ncc4c(N5CC6CCC(C5)N6)nc(OCC56CCCN5CC(F)C6)nc4c3F)c12 (stereo not given) + Cc1nc(NC(=O)N2CCCC2C(N)=O)sc1-c1ccnc(C(C)(C)C(F)(F)F)c1"
target_under_test = "967376-340-R-J2-PDC multicell spheroid viability"
reported = 78.5

[[record]]
molecule = "CC1(C)CCC(Nc2ncc(C(F)(F)F)c(-c3c[nH]c4c(P(C)(C)=O)c(C#N)ccc34)n2)CN1 (stereo not given) + CC(Nc1ncnc2nc[nH]c12)c1cc2cccc(Cl)c2c(=O)n1-c1ccccc1"
target_under_test = "967376-340-R-J2-PDC multicell spheroid viability"
reported = 71.4


Param readout = viability, T/C; param system = 967376-340-R-J2-PDC multicell spheroid viability; param query = C=CC(=O)N1CCN(c2nc(=O)n(-c3c(C)ccnc3C(C)C)c3nc(-c4c(O)cccc4F)c(F)cc23)C(C)C1 (stereo not given) + CC(Nc1ncnc2nc[nH]c12)c1cc2cccc(Cl)c2c(=O)n1-c1ccccc1 ; response: value 86.7

Param readout = viability, T/C; param system = 967376-340-R-J2-PDC multicell spheroid viability; param query = CCCS(=O)(=O)Nc1ccc(F)c(C(=O)c2c[nH]c3ncc(-c4ccc(Cl)cc4)cc23)c1F + COc1c(OCCCN2CCOCC2)ccc2c3n(c(=NC(=O)c4cnc(N)nc4)nc12)CCN3 ; response: value 68.1

Param readout = viability, T/C; param system = 967376-340-R-J2-PDC multicell spheroid viability; param query = CC1(C)CCC(CN2CCN(c3ccc(C(=O)NS(=O)(=O)c4ccc(NCC5CCOCC5)c([N+](=O)[O-])c4)c(Oc4cnc5[nH]ccc5c4)c3)CC2)=C(c2ccc(Cl)cc2)C1 + CC(Nc1ccc2c(c1)OCCn1cc(N3C(=O)OCC3C(F)F)nc1-2)C(N)=O ; response: value 71.2

Param readout = viability, T/C; param system = 967376-340-R-J2-PDC multicell spheroid viability; param query = C#Cc1c(F)ccc2cc(O)cc(-c3ncc4c(N5CC6CCC(C5)N6)nc(OCC56CCCN5CC(F)C6)nc4c3F)c12 (stereo not given) + CC(Nc1ncnc2nc[nH]c12)c1cc2cccc(Cl)c2c(=O)n1-c1ccccc1 ; response: value 99.5

Param readout = viability, T/C; param system = 967376-340-R-J2-PDC multicell spheroid viability; param query = Cn1ncc(Cl)c1-c1cc(C(=O)NC(CN)Cc2cccc(F)c2)sc1Cl (stereo not given) + CC(Nc1ccc2c(c1)OCCn1cc(N3C(=O)OCC3C(F)F)nc1-2)C(N)=O ; response: value 59.9
